meta.source: patent US9884849B2

- Test system: A2780 cells
- assay overview: Proliferation assay A2780 (Method 3)
- Type: cell-based, human
- condition details: A2780, 4 days, crystal violet; read-out: Inhibition of A2780 cell proliferation IC50
Please assign false whenever IC50 is at or above 0.06 µM, and true whenever it is below.

Record excerpt, results attached:
CS(=O)(Cc1cccc(Nc2ncc(F)c(-c3ccc(F)c4ccoc34)n2)c1)=NC#N (single isomer, unassigned) ... true
CS(=N)(=O)Cc1cc(F)cc(Nc2ncc(F)c(-c3ccc(F)c4ccoc34)n2)c1 (single isomer, unassigned) ... true
CS(=O)(Cc1cc(F)cc(Nc2ncc(F)c(-c3ccc(F)c4ccoc34)n2)c1)=NC#N (single isomer, unassigned) ... true
CS(=N)(=O)Cc1cccc(Nc2ncc(F)c(-c3ccc(F)c4ccoc34)n2)c1 (single isomer, unassigned) [Example 6] ... true
CS(=N)(=O)Cc1cccc(Nc2ncc(F)c(-c3ccc(F)c4ccoc34)n2)c1 (single isomer, unassigned) [Example 5] ... false

Could you now look at the following compound, please?
Strictly below 0.06 µM in IC50? Cc1cc(CS(C)(=O)=NC#N)cc(Nc2ncc(F)c(-c3ccc(F)c4ccoc34)n2)c1 (single isomer, unassigned)
false
